- Tested on: ATP;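 note: ATP exposure 15 min at 22 °C before imaging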
- Test Method Notes: switch fluorescence ratio, 500 uM ATP over buffer (Cy3 cluster intensity, sum of 5 cycles each) (fold (ratio)); higher = stronger signal-on switching upon ATP binding; sequences stand for … in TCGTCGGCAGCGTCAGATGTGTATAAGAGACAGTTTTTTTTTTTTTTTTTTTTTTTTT…TC
- Test Settings: aptamer strand: ATP DNA aptamer (quencher-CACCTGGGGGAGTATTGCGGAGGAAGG + anchor), 100 nM annealed; ATP concentration: 500 uM
Measurement Label: switch fluorescence ratio
Reply briefly: the number, and no unit.

Solved cases below.
{"columns": ["Sequence Chain", "Numeric Value"],
 "data": [
  ["TCTCAAGTGG", 0.992],
  ["TTTTGGAACG", 0.99],
  ["AGATGAGAGT", 1],
  ["TCACGGAAGT", 1.02],
  ["AAGCAGGCGG", 1.02]
]}

Turning now to a further sequence:
Input AGTCTGCTGT . Output switch fluorescence ratio: 0.984

###

- Tested on: ATP;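 note: ATP exposure 15 min at 22 °C before imaging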
- Test Method Notes: switch fluorescence ratio, 500 uM ATP over buffer (Cy3 cluster intensity, sum of 5 cycles each) (fold (ratio)); higher = stronger signal-on switching upon ATP binding; sequences stand for … in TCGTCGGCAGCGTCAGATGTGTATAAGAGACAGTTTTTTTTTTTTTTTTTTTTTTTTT…TC
- Test Settings: aptamer strand: ATP DNA aptamer (quencher-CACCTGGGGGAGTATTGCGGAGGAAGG + anchor), 100 nM annealed; ATP concentration: 500 uM
Recorded switch fluorescence ratio for the following sequences

Solved cases below.
{"columns": ["Sequence Chain", "switch fluorescence ratio"],
 "data": [
  ["TTTTATGTCA", 1.03],
  ["TTTAAGAAGG", 1],
  ["TATAGGGTTG", 0.999],
  ["TGTCCGTTTG", 1.01],
  ["GGGTGTGCTT", 1.04]
]}

Input CGTTTAACGT . Output switch fluorescence ratio: 0.989

Input TGCTAACGTG . Output switch fluorescence ratio: 0.977

Input CGACTTACGG . Output switch fluorescence ratio: 1.11

Input CATTTTCGGC . Output switch fluorescence ratio: 1.01

Input TCACATAGTT . Output switch fluorescence ratio: 1.01

Input ATGGGGATGG . Output switch fluorescence ratio: 0.978

###

- System: ATP;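 note: ATP exposure 15 min at 22 °C before imaging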
- Test Method Notes: switch fluorescence ratio, 500 uM ATP over buffer (Cy3 cluster intensity, sum of 5 cycles each) (fold (ratio)); higher = stronger signal-on switching upon ATP binding; sequences stand for … in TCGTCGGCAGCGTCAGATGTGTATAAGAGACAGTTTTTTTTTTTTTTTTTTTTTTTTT…TC
- Test Settings: aptamer strand: ATP DNA aptamer (quencher-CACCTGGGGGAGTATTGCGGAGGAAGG + anchor), 100 nM annealed; ATP concentration: 500 uM
Measurement Label: switch fluorescence ratio
Reply briefly: the number, and no unit.

{"columns": ["Sequence Chain", "switch fluorescence ratio"],
 "data": [
  ["ATAAGGTCAA", 0.995],
  ["AACGAGGAGT", 1.01],
  ["TCTGCCCCCC", 1.12],
  ["TTGTATTGGT", 1.04],
  ["AAGGGTATTG", 0.995]
]}

Summary line: TTTTGCTTGT , ATP, reported switch fluorescence ratio = 0.996

Summary line: TTTGGGGTCC , ATP, reported switch fluorescence ratio = 1.07

Summary line: AGCTGAGGGA , ATP, reported switch fluorescence ratio = 1.01

Summary line: GAAGTCCAGA , ATP, reported switch fluorescence ratio = 1.01

Summary line: CGGCTAGGGG , ATP, reported switch fluorescence ratio = 1.02

Summary line: CGTTTGGCTT , ATP, reported switch fluorescence ratio = 1.01

Summary line: TTTGCTGGCG , ATP, reported switch fluorescence ratio = 0.935

Summary line: ATGTGTCGCG , ATP, reported switch fluorescence ratio = 0.992

Summary line: AGAAAAAACA , ATP, reported switch fluorescence ratio = 0.986

Summary line: GAAGTGATGG , ATP, reported switch fluorescence ratio = 1.14

Summary line: TATGAAATAG , ATP, reported switch fluorescence ratio = 0.99

Summary line: GGGGGGTTCT , ATP, reported switch fluorescence ratio = 1.01

Summary line: TTCGGGTATG , ATP, reported switch fluorescence ratio = 1.01
